// provenance: paper PMC11418112

Assayed Target: T1, RsbV-P (phosphorylated RsbV) (B. subtilis) (UniProt P17903)
T1 sequence (chain, phosphoserine at 56 (32P)): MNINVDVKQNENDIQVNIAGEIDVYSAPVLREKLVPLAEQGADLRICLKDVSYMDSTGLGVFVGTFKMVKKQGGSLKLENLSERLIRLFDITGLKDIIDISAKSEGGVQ
Experimental Readout: kcat of RsbV-P dephosphorylation (single turnover, 10 mM MnCl2, Michaelis-Menten fit) (min^–1)
Field: numeric (min^–1). Do not append units.

These solved cases illustrate the format of a correct answer.
SpoIIE^I723S (phosphatase domain, SpoIIE^590-827) (domain or fragment) SYRVSTGAAHAAKGGGLVSGDSYSMMELGARKYAAAISDGMGNGARAHFESNETIKLLEKILESGIDEKIAIKTINSILSLRTTDEIYSTLDLSIIDLQDASCKFLKVGSTPSFIKRGDQVMKVQASNLPIGISNEFDVEVVSEQLKAGDLLIMMSDGIFEGPKHVENHDLWMKRKMKGLKTNDPQEIADLLMEEVIRTRSGQIEDDMTVVVVRIDHNTPKWASIPVPAIFQNKQEIS | 0.018
SpoIIE^E675S (phosphatase domain, SpoIIE^590-827) (domain or fragment) SYRVSTGAAHAAKGGGLVSGDSYSMMELGARKYAAAISDGMGNGARAHFESNETIKLLEKILESGIDEKIAIKTINSILSLRTTDSIYSTLDLSIIDLQDASCKFLKVGSTPSFIKRGDQVMKVQASNLPIGIINEFDVEVVSEQLKAGDLLIMMSDGIFEGPKHVENHDLWMKRKMKGLKTNDPQEIADLLMEEVIRTRSGQIEDDMTVVVVRIDHNTPKWASIPVPAIFQNKQEIS | 0.063
SpoIIE^P752R (phosphatase domain, SpoIIE^590-827) (domain or fragment) SYRVSTGAAHAAKGGGLVSGDSYSMMELGARKYAAAISDGMGNGARAHFESNETIKLLEKILESGIDEKIAIKTINSILSLRTTDEIYSTLDLSIIDLQDASCKFLKVGSTPSFIKRGDQVMKVQASNLPIGIINEFDVEVVSEQLKAGDLLIMMSDGIFEGRKHVENHDLWMKRKMKGLKTNDPQEIADLLMEEVIRTRSGQIEDDMTVVVVRIDHNTPKWASIPVPAIFQNKQEIS | 0.15

Could you now look at the following binder, please?
// kcat of RsbV-P dephosphorylation (single turnover, 10 mM MnCl2, Michaelis-Menten fit) value for SpoIIE phosphatase domain (SpoIIE^590-827) (domain or fragment) SYRVSTGAAHAAKGGGLVSGDSYSMMELGARKYAAAISDGMGNGARAHFESNETIKLLEKILESGIDEKIAIKTINSILSLRTTDEIYSTLDLSIIDLQDASCKFLKVGSTPSFIKRGDQVMKVQASNLPIGIINEFDVEVVSEQLKAGDLLIMMSDGIFEGPKHVENHDLWMKRKMKGLKTNDPQEIADLLMEEVIRTRSGQIEDDMTVVVVRIDHNTPKWASIPVPAIFQNKQEIS : 0.0086
